applied_conditions: human, serum
Mark True only for Hepatotoxicity (acute) values smaller than 5; exact matches and larger values are False.

molecule: COc1cccc2c1C(=O)c1c(O)c3c(c(O)c1C2=O)C[C@@](O)(/C(C)=N/NC(=O)c1ccccc1)C[C@@H]3O[C@H]1C[C@H](N)[C@H](O)[C@H](C)O1 [ZORUBICIN]
cat: True

molecule: CN[C@H]1CC[C@@H](c2ccc(Cl)c(Cl)c2)c2ccccc21 [SERTRALINE]
cat: False

molecule: COc1cc([C@@H]2c3cc4c(cc3[C@@H](O[C@@H]3O[C@@H]5CO[C@@H](c6cccs6)O[C@H]5[C@H](O)[C@H]3O)[C@H]3COC(=O)[C@H]23)OCO4)cc(OC)c1O [TENIPOSIDE]
cat: True

molecule: C[C@H]1C[C@H]2[C@@H]3CCC4=CC(=O)C=C[C@]4(C)[C@@]3(Cl)[C@@H](O)C[C@]2(C)[C@@]1(O)C(=O)CO [BECLOMETHASONE]
cat: True

molecule: O=C(CCNNC(=O)c1ccncc1)NCc1ccccc1 [NIALAMIDE]
cat: True

molecule: CC(=O)N1CCN(c2ccc(OCC3COC(Cn4ccnc4)(c4ccc(Cl)cc4Cl)O3)cc2)CC1 (configuration not stated) [KETOCONAZOLE]
cat: False

molecule: CC(C)C[C@H](NC(=O)[C@@H](COC(C)(C)C)NC(=O)[C@H](Cc1ccc(O)cc1)NC(=O)[C@H](CO)NC(=O)[C@H](Cc1c[nH]c2ccccc12)NC(=O)[C@H](Cc1cnc[nH]1)NC(=O)[C@@H]1CCC(=O)N1)C(=O)N[C@@H](CCCNC(=N)N)C(=O)N1CCC[C@H]1C(=O)NNC(N)=O [GOSERELIN]
cat: True

molecule: Cc1ccnc2c1NC(=O)c1cccnc1N2C1CC1 [NEVIRAPINE]
cat: False

molecule: C[C@H]1O[C@H](O[C@H]2[C@H](O)[C@@H](O)[C@@H](O[C@H]3[C@H](O)[C@@H](O)C(O)O[C@@H]3CO)O[C@@H]2CO)[C@H](O)[C@@H](O)[C@@H]1N[C@H]1C=C(CO)[C@@H](O)[C@H](O)[C@H]1O (some centres not stated) [ACARBOSE]
cat: False

###

Recorded measurements of Hepatotoxicity (cytolytic), one per entry
applied_conditions: human
readout_type: Hepatotoxicity (cytolytic)

compound: C[C@]12CCC(=O)C=C1CC[C@@H]1[C@@H]2C(=O)C[C@@]2(C)[C@H]1CC[C@]2(O)C(=O)CO
measurement: 0
--
compound: Fc1ccc(C(c2ccc(F)cc2)N2CCN(C/C=C/c3ccccc3)CC2)cc1
measurement: 0
--
compound: C[C@H](CCc1ccccc1)NC[C@H](O)c1ccc(O)c(C(N)=O)c1
measurement: 1
--
compound: O=C(NCCN1CCOCC1)c1ccc(Cl)cc1 [MOCLOBEMIDE]
measurement: 0
--
compound: O=[As](O)(O)c1ccc(NCCNc2ccc([As](=O)(O)O)cc2)cc1
measurement: 2

###

applied_conditions: human, serum
readout_type: Hepatotoxicity (acute)

compound: CC1(C)S[C@@H]2[C@H](NC(=O)[C@H](N)c3ccc(O)cc3)C(=O)N2[C@H]1C(=O)O [AMOXICILLIN]
measurement: 10

compound: CC(Cc1ccccc1)NCc1ccccc1Cl (centres undefined) [CLOBENZOREX]
measurement: 1

compound: Cc1noc(NS(=O)(=O)c2ccc(N)cc2)c1C [SULFISOXAZOLE]
measurement: 4

compound: CC1=C(/C=C/C(C)=C/C=C/C(C)=C/C(=O)O)C(C)(C)CCC1 [TRETINOIN]
measurement: 10

compound: O=C(O)Cc1ccccc1Oc1ccc(Cl)cc1Cl [FENCLOFENAC]
measurement: 0

compound: Nc1ncc2ncn(COCCO)c2n1 [DESCICLOVIR]
measurement: 0

compound: CN1CCN(C2=Nc3cc(F)ccc3Cc3ccccc32)CC1 [FLUPERLAPINE]
measurement: 0

compound: C[C@]12CC[C@H]3[C@@H](CCC4=CC(=O)CC[C@@H]43)[C@@H]1CC[C@@H]2O [NANDROLONE]
measurement: 7

compound: CC(=O)c1ccc(S(=O)(=O)NC(=O)NC2CCCCC2)cc1 [ACETOHEXAMIDE]
measurement: 6

###

assay: Highest frequency of moderate liver toxicity observed during clinical trials, expressed as a percentage. [column '% BIOL' in source]
applied_conditions: human

substance: EPOETIN ALFA
Hepatotoxicity (moderate): 20%
//
substance: INTERLEUKIN 1BETA
Hepatotoxicity (moderate): 75%
//
substance: DALTEPARIN SODIUM
Hepatotoxicity (moderate): 2.6%
//
substance: INTERFERON ALFA-N1
Hepatotoxicity (moderate): 42%
//
substance: INTERLEUKIN 6
Hepatotoxicity (moderate): 55%
//
substance: INTERFERON BETA
Hepatotoxicity (moderate): 100%
//
substance: INTERFERON ALFA-2B
Hepatotoxicity (moderate): 87.5%
//
substance: ENOXAPARIN
Hepatotoxicity (moderate): 36%
//
substance: STREPTOKINASE
Hepatotoxicity (moderate): 75%

###

applied_conditions: human
readout_type: Hepatotoxicity (cirrhosis)

molecule: NC(N)=Nc1nc(CSCCN/C=N/S(=O)(=O)c2ccc(Br)cc2)cs1
measurement: 1

molecule: O=C(O)C(=O)O
measurement: 0

molecule: CCOC(=O)C1(c2ccccc2)CCN(CCC(O)c2ccccc2)CC1 (stereo unspecified)
measurement: 0

molecule: CC(=O)[C@@]1(O)CC[C@H]2[C@@H]3C[C@H](C)C4=CC(=O)CC[C@]4(C)[C@H]3CC[C@@]21C
measurement: 0

molecule: Nc1ccc(S(=O)(=O)Nc2ncccn2)cc1
measurement: 0

molecule: O=C1NC(=S)NC(=O)C1C(=O)Nc1ccccc1
measurement: 0

molecule: Cc1nnc(NS(=O)(=O)c2ccc(N)cc2)s1
measurement: 0

molecule: CC(c1cc2ccccc2s1)N(O)C(N)=O (stereo unspecified)
measurement: 0

molecule: O=C1C(O)=C([C@H]2CC[C@H](c3ccc(Cl)cc3)CC2)C(=O)c2ccccc21
measurement: 0

molecule: CC(C)(CNC(N)=O)NCC(O)COC(=O)c1ccccc1F (stereo unspecified)
measurement: 0

molecule: CC(=O)c1ccc2c(c1)N(CC(C)N(C)C)c1ccccc1S2 (stereo unspecified)
measurement: 0

molecule: CCCCCNCC(N)=O [MILACEMIDE]
measurement: 0

molecule: CN(CCOc1ccc(CC2SC(=O)NC2=O)cc1)c1ccccn1 (stereo unspecified)
measurement: 0

molecule: Oc1ccc(Cl)cc1Cc1cc(Cl)ccc1O
measurement: 0

molecule: CC(C)[C@@H]1NC(=O)[C@H](CCCCN)NC(=O)[C@@H](Cc2c[nH]c3ccccc23)NC(=O)[C@H](Cc2ccc(O)cc2)NC(=O)[C@@H](NC(=O)[C@H](N)Cc2ccc3ccccc3c2)CSSC[C@@H](C(=O)N[C@H](C(N)=O)[C@@H](C)O)NC1=O [LANREOTIDE]
measurement: 0

molecule: CC(=O)Nc1nnc(S(N)(=O)=O)s1 [ACETAZOLAMIDE]
measurement: 0

molecule: NS(=O)(=O)c1cc2c(cc1C(F)(F)F)NC(Cc1ccccc1)NS2(=O)=O (stereo unspecified) [BENDROFLUMETHIAZIDE]
measurement: 0

molecule: CO[C@@H](/C(C)=C/C=C/C(C)=C/c1coc(C)n1)[C@@H](C)[C@@H]1C[C@H](O)[C@@]2(C)O[C@@H]2/C=C/[C@@H](C)[C@H]2C[C@H](CC(=O)O2)C[C@@H]2O[C@H]2C(=O)O1
measurement: 0

molecule: Nc1nc(N)nc(Nc2ccc([As]3SCC(CO)S3)cc2)n1 (stereo unspecified)
measurement: 0

molecule: C#CC(O)(/C=C/Cl)CC (stereo unspecified)
measurement: 0

molecule: CCCCOCC(CN1C(=O)N(CC(COCCCC)OC(N)=O)C(=O)C(CC)(c2ccccc2)C1=O)OC(N)=O (stereo unspecified) [DIFEBARBAMATE]
measurement: 0

molecule: COc1ccc(-n2nc(CCC(=O)N(C)O)cc2-c2ccc(Cl)cc2)cc1
measurement: 0

molecule: CCCNCC(O)COc1ccccc1C(=O)CCc1ccccc1 (stereo unspecified)
measurement: 0

molecule: CCCN(CCC)S(=O)(=O)c1ccc(C(=O)O)cc1
measurement: 0

molecule: OCCN1CCN(CC/C=C2/c3ccccc3Sc3ccc(Cl)cc32)CC1
measurement: 0

molecule: CC(C)n1c(/C=C/C(O)CC(O)CC(=O)O)c(-c2ccc(F)cc2)c2ccccc21 (stereo unspecified)
measurement: 0

molecule: COC1=C(OC)C(=O)C(CCCCCCCCCCO)=C(C)C1=O
measurement: 0

molecule: N[C@H](C(=O)O)[C@@H]1CC(Cl)=NO1
measurement: 0

molecule: CC(C)(Oc1ccc(CCNC(=O)c2ccc(Cl)cc2)cc1)C(=O)O [BEZAFIBRATE]
measurement: 0

molecule: Cc1[nH]c(=O)c(C#N)cc1-c1ccncc1
measurement: 0

molecule: CN(C)CCN(Cc1ccccc1)c1ccccn1
measurement: 0

molecule: CCCN(CCC)C(=O)Cc1c(-c2ccc(Cl)cc2)nc2ccc(Cl)cn12
measurement: 0

molecule: COCCCN1CCC(NC(=O)c2cc(Cl)c(N)c3c2OCC3)CC1 [PRUCALOPRIDE]
measurement: 0

molecule: O=C(O)c1cc(/N=N/c2ccc(O)c(C(=O)O)c2)ccc1O
measurement: 0

molecule: COc1cc2c(cc1OC)C(=O)C(CC1CCN(Cc3ccccc3)CC1)C2 (stereo unspecified)
measurement: 0

molecule: COC(=O)C1=C(C#N)NC(C)=C(C(=O)OC(C)C)C1c1cccc([N+](=O)[O-])c1 (stereo unspecified)
measurement: 0
